test.target: HLA-A0201 (Homo sapiens, UniProt P04439, D140Y/D185E/D98H/E176V/E277Q/G131W/G231S/I119V/I121R/I166T/I218V/L300P/L318F/N151K/N90K/P208A/P217A/Q86G/Q94H/R138H/R169H/T345S)
Construct: expressed in transfected cells; host or cells: HMy2.CIR
test.name: cell-based
Format: binding
conditions.used: HLA-A0201 HMy2.CIR cells; competitor peptide 15μM; 24 hours; flow cytometry; read-out: 15μM Inhibition (%)
Residues, ends and D or L forms follow the SMILES beside them.
outcome.measure: inhibition at 15 µM (%)

compound="CC[C@H](C)[C@H](NC(=O)[C@H](CO)NC(=O)[C@H](Cc1ccc(O)cc1)NC(=O)[C@@H](N)CC(C)C)C(=O)N[C@@H](CC(C)C)C(=O)N[C@@H](CO)C(=O)N1CCC[C@H]1C(=O)N[C@@H](Cc1ccccc1)C(=O)N[C@@H](CC(C)C)C(=O)O [Epitope P19] (H-LYSILSPFL-OH; N-terminus and C-terminus assumed)" test_value=13.1
compound="CC[C@H](C)[C@H](NC(=O)[C@H](CC(C)C)NC(=O)[C@H](CCCCN)NC(=O)[C@H](C)NC(=O)CNC(=O)[C@H](CO)NC(=O)[C@H](CCCNC(=N)N)NC(=O)[C@H](CO)NC(=O)[C@@H](N)CCCNC(=N)N)C(=O)O [Epitope P89] (H-RSRSGAKLI-OH; N-terminus and C-terminus assumed)" test_value=27.1
